# target.of.assay: Mineralocorticoid receptor (Homo sapiens)
# Sequence (P08235 whole entry): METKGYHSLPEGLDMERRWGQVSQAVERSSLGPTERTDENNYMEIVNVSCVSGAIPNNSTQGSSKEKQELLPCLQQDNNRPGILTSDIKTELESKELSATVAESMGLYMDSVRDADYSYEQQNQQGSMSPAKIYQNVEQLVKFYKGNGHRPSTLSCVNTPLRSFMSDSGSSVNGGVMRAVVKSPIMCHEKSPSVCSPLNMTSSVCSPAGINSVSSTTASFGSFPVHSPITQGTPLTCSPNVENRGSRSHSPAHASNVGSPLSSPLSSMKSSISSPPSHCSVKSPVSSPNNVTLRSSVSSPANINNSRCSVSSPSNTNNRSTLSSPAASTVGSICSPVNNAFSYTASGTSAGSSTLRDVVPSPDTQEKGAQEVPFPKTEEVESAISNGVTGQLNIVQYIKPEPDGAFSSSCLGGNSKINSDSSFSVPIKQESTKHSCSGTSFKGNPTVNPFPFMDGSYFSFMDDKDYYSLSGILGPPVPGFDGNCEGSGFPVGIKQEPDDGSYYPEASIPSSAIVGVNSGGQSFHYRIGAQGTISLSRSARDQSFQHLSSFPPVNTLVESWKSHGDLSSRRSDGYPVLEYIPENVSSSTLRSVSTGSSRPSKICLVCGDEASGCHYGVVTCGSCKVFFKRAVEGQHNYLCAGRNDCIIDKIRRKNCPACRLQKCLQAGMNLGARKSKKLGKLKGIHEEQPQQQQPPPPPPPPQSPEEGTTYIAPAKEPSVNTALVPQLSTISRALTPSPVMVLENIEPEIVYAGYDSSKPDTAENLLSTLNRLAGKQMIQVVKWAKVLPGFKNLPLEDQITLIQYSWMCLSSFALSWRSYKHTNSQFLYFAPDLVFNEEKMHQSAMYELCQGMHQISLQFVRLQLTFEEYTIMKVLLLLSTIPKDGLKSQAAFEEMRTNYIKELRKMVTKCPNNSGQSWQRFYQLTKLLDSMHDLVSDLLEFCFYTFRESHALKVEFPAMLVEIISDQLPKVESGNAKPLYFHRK
quantity: pIC50
Answer as the number alone; pIC50 is minus log10 of concentration in mol/L.

Fill in the recorded pIC50 for this molecule, with Mineralocorticoid receptor (Homo sapiens) as test system: `CCOc1ncc(C)c2c1[C@H](c1ccc(C#N)cc1OC)C(C(N)=O)=C(C)N2` 7.74
